target-or-test-system: Estrogen receptor (Homo sapiens)
experiment-notes: ATG_ERa_TRANS: Attagene TRANS-FACTORIAL HepG2 Assay for human Estrogen Receptor alpha (ERa) (AID 2282970)
run-parameters: HepG2 Attagene TRANS ERa GAL4 reporter, mRNA
Results filed as inconclusive are left out. Calls of active or inactive are those of the source. How the source made its calls: active means hit-call score of the fitted dose curve at least 0.9, where 1 is the maximum; inconclusive means response in the unintended direction; inactive means score below 0.9.
Outcomes: 1 = active, 0 = inactive

[[record]]
cpd_smiles = "CC(C)OC(=O)COc1ccc(Cl)cc1Cl"
answer_label = 0

[[record]]
cpd_smiles = "CC(C)(C)c1cc(CCC(=O)OCC(COC(=O)CCc2cc(C(C)(C)C)c(O)c(C(C)(C)C)c2)(COC(=O)CCc2cc(C(C)(C)C)c(O)c(C(C)(C)C)c2)COC(=O)CCc2cc(C(C)(C)C)c(O)c(C(C)(C)C)c2)cc(C(C)(C)C)c1O"
answer_label = 1

[[record]]
cpd_smiles = "CC(C)(C)c1cc(CCC(=O)NCCCCCCNC(=O)CCc2cc(C(C)(C)C)c(O)c(C(C)(C)C)c2)cc(C(C)(C)C)c1O"
answer_label = 0

[[record]]
cpd_smiles = "O=C1OC(=O)c2ccc3c4c(ccc1c24)C(=O)OC3=O"
answer_label = 0

